biological target: CYP2C9 (Homo sapiens, UniProt P11712); assay: CYP inhibition, recombinant enzyme, fluorescence; type: in vitro ADME; settings: human, recombinant CYP2C9, pH 7.4; 10 μM compound, 30 min pre-incubation; read-out: CYP inhibition (%) at 10 μM, 2C9
Sequence (P11712 whole entry): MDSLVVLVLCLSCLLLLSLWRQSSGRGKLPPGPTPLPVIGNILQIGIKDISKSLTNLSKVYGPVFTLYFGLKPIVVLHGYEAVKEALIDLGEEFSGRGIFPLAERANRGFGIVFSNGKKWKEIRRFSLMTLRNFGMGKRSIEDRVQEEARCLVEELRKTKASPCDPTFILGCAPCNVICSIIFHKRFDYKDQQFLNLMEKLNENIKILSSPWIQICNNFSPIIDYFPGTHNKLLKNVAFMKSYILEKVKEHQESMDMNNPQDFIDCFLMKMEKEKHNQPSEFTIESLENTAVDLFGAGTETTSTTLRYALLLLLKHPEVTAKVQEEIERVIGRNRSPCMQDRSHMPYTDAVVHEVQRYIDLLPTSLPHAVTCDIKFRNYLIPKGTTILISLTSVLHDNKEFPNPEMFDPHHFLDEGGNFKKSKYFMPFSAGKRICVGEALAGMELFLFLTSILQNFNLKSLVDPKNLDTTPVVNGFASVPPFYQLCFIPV
So I've got a bunch of compounds here, and I need their inhibition at 30 min, 10 µM values.

Entry CC(=O)N(C1CCC(C)(C)CC1)[C@H]1C[C@@H](C(=O)N2CCOCC2)N(C(=O)[C@@H]2CN(C(C)(C)C)C[C@H]2c2ccc(Cl)cc2)C1.Cl [Comparative Example 2 (A96), hydrochloride] , inhibition at 30 min, 10 µM reported as > 50%

Entry CC(C)C(=O)N([C@H]1C[C@@H](C(=O)N2CCOCC2)N(C(=O)[C@@H]2CN(C(C)(C)C)C[C@H]2c2ccc(Cl)cc2)C1)[C@H]1CC[C@@H](C)CC1.Cl [Example 1, hydrochloride] , inhibition at 30 min, 10 µM reported as < 50%

---

Biological target: CYP1A2 (Homo sapiens)
Sequence (P05177 1-516): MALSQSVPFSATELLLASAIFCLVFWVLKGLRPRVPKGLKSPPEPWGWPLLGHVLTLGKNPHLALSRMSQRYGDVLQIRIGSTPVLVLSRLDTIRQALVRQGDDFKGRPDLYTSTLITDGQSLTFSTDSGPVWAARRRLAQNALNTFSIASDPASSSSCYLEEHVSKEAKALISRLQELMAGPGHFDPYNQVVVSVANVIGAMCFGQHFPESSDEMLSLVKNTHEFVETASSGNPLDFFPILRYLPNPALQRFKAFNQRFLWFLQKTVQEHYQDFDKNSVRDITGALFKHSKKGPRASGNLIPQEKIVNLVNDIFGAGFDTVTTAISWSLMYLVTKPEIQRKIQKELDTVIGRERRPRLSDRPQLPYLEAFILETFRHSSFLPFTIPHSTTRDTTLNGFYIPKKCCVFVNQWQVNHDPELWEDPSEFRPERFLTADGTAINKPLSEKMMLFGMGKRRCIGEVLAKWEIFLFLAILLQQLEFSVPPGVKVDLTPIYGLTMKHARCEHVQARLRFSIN
Assay: CYP inhibition, recombinant enzyme, fluorescence
Assay type: in vitro ADME
Details: recombinant CYP1A2, pH 7.4, 10 μM compound, 30 min pre-incubation, read-out: CYP inhibition (%) at 10 μM, 1A2
So I've got a bunch of compounds here, and I need their inhibition at 30 min, 10 µM values.

Entry CC(=O)N(C1CCC(C)(C)CC1)[C@H]1C[C@@H](C(=O)N2CCOCC2)N(C(=O)[C@@H]2CN(C(C)(C)C)C[C@H]2c2ccc(Cl)cc2)C1.Cl [Comparative Example 2 (A96), hydrochloride] , inhibition at 30 min, 10 µM reported as < 50%

Entry CC(C)C(=O)N([C@H]1C[C@@H](C(=O)N2CCOCC2)N(C(=O)[C@@H]2CN(C(C)(C)C)C[C@H]2c2ccc(Cl)cc2)C1)[C@H]1CC[C@@H](C)CC1.Cl [Example 1, hydrochloride] , inhibition at 30 min, 10 µM reported as < 50%

---

biological target: CYP2C19 (Homo sapiens, UniProt P33261); experiment: CYP inhibition, recombinant enzyme, fluorescence; type: in vitro ADME; settings: recombinant CYP2C19, pH 7.4, 10 μM compound, 30 min pre-incubation, read-out: CYP inhibition (%) at 10 μM, 2C19
Sequence (P33261 whole entry): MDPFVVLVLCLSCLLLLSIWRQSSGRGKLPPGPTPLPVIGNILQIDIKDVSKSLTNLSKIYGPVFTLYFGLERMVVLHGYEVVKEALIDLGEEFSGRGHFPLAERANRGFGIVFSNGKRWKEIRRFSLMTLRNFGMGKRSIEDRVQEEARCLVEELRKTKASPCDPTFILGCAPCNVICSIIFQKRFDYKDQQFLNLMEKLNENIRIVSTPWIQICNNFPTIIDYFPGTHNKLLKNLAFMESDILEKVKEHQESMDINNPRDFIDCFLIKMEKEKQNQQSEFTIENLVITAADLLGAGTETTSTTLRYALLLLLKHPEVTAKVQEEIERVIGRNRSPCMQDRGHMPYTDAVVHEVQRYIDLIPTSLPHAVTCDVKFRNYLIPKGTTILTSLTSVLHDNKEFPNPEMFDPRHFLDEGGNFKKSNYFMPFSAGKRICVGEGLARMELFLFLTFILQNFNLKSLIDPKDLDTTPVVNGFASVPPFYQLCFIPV
So I've got a bunch of compounds here, and I need their inhibition at 30 min, 10 µM values.

The measured inhibition at 30 min, 10 µM that CC(=O)N(C1CCC(C)(C)CC1)[C@H]1C[C@@H](C(=O)N2CCOCC2)N(C(=O)[C@@H]2CN(C(C)(C)C)C[C@H]2c2ccc(Cl)cc2)C1.Cl [Comparative Example 2 (A96), hydrochloride] showed for CYP2C19 (Homo sapiens, UniProt P33261) is < 50%

The measured inhibition at 30 min, 10 µM that CC(C)C(=O)N([C@H]1C[C@@H](C(=O)N2CCOCC2)N(C(=O)[C@@H]2CN(C(C)(C)C)C[C@H]2c2ccc(Cl)cc2)C1)[C@H]1CC[C@@H](C)CC1.Cl [Example 1, hydrochloride] showed for CYP2C19 (Homo sapiens, UniProt P33261) is < 50%

---

biological target: UniProtKB P32245; assay: cAMP assay (cAMP Hunter Gs-coupled CHO-K1 cell line); format: cell-based; set-up: expressed in transfected cells; host or cells: CHO-K1 (cAMP Hunter Gs-coupled cell line); conditions: CHO-K1 cells overexpressing MC4R, 30 min at 37° C.
Sequence (P32245 whole entry, species assumed): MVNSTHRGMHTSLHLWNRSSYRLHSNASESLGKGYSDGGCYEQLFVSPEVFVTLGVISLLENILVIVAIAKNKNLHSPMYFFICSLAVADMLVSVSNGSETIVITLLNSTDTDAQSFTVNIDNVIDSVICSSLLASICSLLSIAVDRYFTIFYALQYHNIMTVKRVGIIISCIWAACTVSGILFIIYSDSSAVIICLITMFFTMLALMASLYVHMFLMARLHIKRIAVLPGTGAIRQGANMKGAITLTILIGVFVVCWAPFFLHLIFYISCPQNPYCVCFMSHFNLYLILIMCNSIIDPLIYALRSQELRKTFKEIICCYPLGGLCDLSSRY
pEC50: −log10 of the molar value. Counter-ions that a name gives are not always drawn.
Decision: pEC50 >= 7 yields class 1, all other cases yield class 0.

// query Please tell me: is the molecule CC(=O)N(C1CCC(C)(C)CC1)[C@H]1C[C@@H](C(=O)N2CCOCC2)N(C(=O)[C@@H]2CN(C(C)(C)C)C[C@H]2c2ccc(F)cc2F)C1.Cl [Comparative Example 1 (A95), hydrochloride] at or over 7 in terms of pEC50?
// result class 0

// query Please tell me: is the molecule CC(C)(C)C(=O)N([C@H]1C[C@@H](C(=O)N2CCOCC2)N(C(=O)[C@@H]2CN(C(C)(C)C)C[C@H]2c2ccc(Cl)cc2)C1)[C@H]1CC[C@@H](C)CC1 [Example 3, hydrochloride] at or over 7 in terms of pEC50?
// result class 1

// query Please tell me: is the molecule CCC(=O)N([C@H]1C[C@@H](C(=O)N2CCOCC2)N(C(=O)[C@@H]2CN(C(C)(C)C)C[C@H]2c2ccc(Cl)cc2)C1)[C@H]1CC[C@@H](C)CC1 [Example 2, hydrochloride] at or over 7 in terms of pEC50?
// result class 1

// query Please tell me: is the molecule CC(C)C(=O)N([C@H]1C[C@@H](C(=O)N2CCOCC2)N(C(=O)[C@@H]2CN(C(C)(C)C)C[C@H]2c2ccc(Cl)cc2)C1)[C@H]1CC[C@@H](C)CC1.Cl [Example 1, hydrochloride] at or over 7 in terms of pEC50?
// result class 1

---

Target: UniProtKB P32245
Assay: Luciferase assay (HEK MC4R-Luc, CRE-LUC)
Format: cell-based
Design: expressed in transfected cells
Conditions: HEK MC4R-Luc cells, 5 h incubation
Method: In order to measure the agonist ability against MC4R (melanocortin-4 receptor), a cell line that permanently expresses the luciferase gene (CRE-LUC) under the control of MC4R and CRE (cAMP response element) was established. […] Each well was treated with 50 μl of a Bright-Glo luciferase reagent (Promega) and left at room temperature for 15 minutes, and then the luminescence of each well was measured by using a luminometer (Victor). […]
Counter-ions that a name gives are not always drawn.
assayReadout: EC50
Note: a bare number is incomplete; add the unit.

The measured EC50 that CCC(=O)N([C@H]1C[C@@H](C(=O)N2CCOCC2)N(C(=O)[C@@H]2CN(C(C)(C)C)C[C@H]2c2ccc(Cl)cc2)C1)[C@H]1CC[C@@H](C)CC1 [Example 2, hydrochloride] showed for UniProtKB P32245 is 1.07 nM

The measured EC50 that CC(C)C(=O)N([C@H]1C[C@@H](C(=O)N2CCOCC2)N(C(=O)[C@@H]2CN(C(C)(C)C)C[C@H]2c2ccc(Cl)cc2)C1)[C@H]1CC[C@@H](C)CC1.Cl [Example 1, hydrochloride] showed for UniProtKB P32245 is 0.562 nM

The measured EC50 that CC(=O)N(C1CCC(C)(C)CC1)[C@H]1C[C@@H](C(=O)N2CCOCC2)N(C(=O)[C@@H]2CN(C(C)(C)C)C[C@H]2c2ccc(F)cc2F)C1.Cl [Comparative Example 1 (A95), hydrochloride] showed for UniProtKB P32245 is 17.4 nM

The measured EC50 that CC(=O)N(C1CCC(C)(C)CC1)[C@H]1C[C@@H](C(=O)N2CCOCC2)N(C(=O)[C@@H]2CN(C(C)(C)C)C[C@H]2c2ccc(Cl)cc2)C1.Cl [Comparative Example 2 (A96), hydrochloride] showed for UniProtKB P32245 is 5.48 nM

The measured EC50 that CC(C)(C)C(=O)N([C@H]1C[C@@H](C(=O)N2CCOCC2)N(C(=O)[C@@H]2CN(C(C)(C)C)C[C@H]2c2ccc(Cl)cc2)C1)[C@H]1CC[C@@H](C)CC1 [Example 3, hydrochloride] showed for UniProtKB P32245 is 0.675 nM

---

test: Pharmacokinetic profile in mice, plasma and brain, oral administration; format: in vivo, C57BL6 mice; settings: C57BL6, mouse, 10 mg/kg, brain, read-out: t1/2, Brain (converted)
assayReadout: half-life (min)
Just the number please, in min, no unit attached.

Entry CC(=O)N(C1CCC(C)(C)CC1)[C@H]1C[C@@H](C(=O)N2CCOCC2)N(C(=O)[C@@H]2CN(C(C)(C)C)C[C@H]2c2ccc(F)cc2F)C1.Cl , half-life reported as 360

Entry CC(=O)N(C1CCC(C)(C)CC1)[C@H]1C[C@@H](C(=O)N2CCOCC2)N(C(=O)[C@@H]2CN(C(C)(C)C)C[C@H]2c2ccc(Cl)cc2)C1.Cl , half-life reported as 480

Entry CC(C)C(=O)N([C@H]1C[C@@H](C(=O)N2CCOCC2)N(C(=O)[C@@H]2CN(C(C)(C)C)C[C@H]2c2ccc(Cl)cc2)C1)[C@H]1CC[C@@H](C)CC1.Cl , half-life reported as 1140
